experiment: Cyclic voltammetry (CV) in three-electrode cells; type: physicochemical; settings: 1st event (or only value); after 100 cycles (in parentheses)
Consider the following compounds; for each one, report its Ratio of anodic peak current (Ipa) to cathodic peak current (Ipc) (Ipa/Ipc) @50 mV s^−1.
Write the number on its own, no unit after it.

Note down Ratio of anodic peak current (Ipa) to cathodic peak current (Ipc) (Ipa/Ipc) @50 mV s^−1 recorded for CCCCCC[n+]1ccc(-c2nc3ccccc3s2)cc1 [Hex-BTP^+·BF4^−]
0.99

# return recorded Ratio of anodic peak current (Ipa) to cathodic peak current (Ipc) (Ipa/Ipc) @50 mV s^−1 for entry COCC[n+]1ccc(-c2nc3ccccc3s2)cc1 [MOE-BTP^+·BF4^−]
0.98

Please report the measured Ratio of anodic peak current (Ipa) to cathodic peak current (Ipc) (Ipa/Ipc) @50 mV s^−1 for C[n+]1ccc(-c2nc3ccccc3o2)cc1 [BOP^+·BF4^−]
0.46

Specify Ratio of anodic peak current (Ipa) to cathodic peak current (Ipc) (Ipa/Ipc) @50 mV s^−1 for CCCCCCCCCC[n+]1ccc(-c2nc3ccccc3s2)cc1 [Dec-BTP^+·BF4^−] and stop.
0.91

Determine its reported Ratio of anodic peak current (Ipa) to cathodic peak current (Ipc) (Ipa/Ipc) @50 mV s^−1: Cc1cc(-c2nc3ccccc3s2)cc(C)[n+]1C [DiMe-BTP^+·BF4^−]
0.88

Give recorded Ratio of anodic peak current (Ipa) to cathodic peak current (Ipc) (Ipa/Ipc) @50 mV s^−1. Cn1c(-c2cc[n+](C)cc2)nc2ccccc21 [BIP^+·BF4^−]
0.73
